molecular target: UniProt Q12866; assay: Inhibition of FLAG-tagged MER (unknown origin) transfected in Cos-7cells assessed as phosphorylation level incubated for 1 hr by ELISA
Sequence (Q12866 whole entry, looked up): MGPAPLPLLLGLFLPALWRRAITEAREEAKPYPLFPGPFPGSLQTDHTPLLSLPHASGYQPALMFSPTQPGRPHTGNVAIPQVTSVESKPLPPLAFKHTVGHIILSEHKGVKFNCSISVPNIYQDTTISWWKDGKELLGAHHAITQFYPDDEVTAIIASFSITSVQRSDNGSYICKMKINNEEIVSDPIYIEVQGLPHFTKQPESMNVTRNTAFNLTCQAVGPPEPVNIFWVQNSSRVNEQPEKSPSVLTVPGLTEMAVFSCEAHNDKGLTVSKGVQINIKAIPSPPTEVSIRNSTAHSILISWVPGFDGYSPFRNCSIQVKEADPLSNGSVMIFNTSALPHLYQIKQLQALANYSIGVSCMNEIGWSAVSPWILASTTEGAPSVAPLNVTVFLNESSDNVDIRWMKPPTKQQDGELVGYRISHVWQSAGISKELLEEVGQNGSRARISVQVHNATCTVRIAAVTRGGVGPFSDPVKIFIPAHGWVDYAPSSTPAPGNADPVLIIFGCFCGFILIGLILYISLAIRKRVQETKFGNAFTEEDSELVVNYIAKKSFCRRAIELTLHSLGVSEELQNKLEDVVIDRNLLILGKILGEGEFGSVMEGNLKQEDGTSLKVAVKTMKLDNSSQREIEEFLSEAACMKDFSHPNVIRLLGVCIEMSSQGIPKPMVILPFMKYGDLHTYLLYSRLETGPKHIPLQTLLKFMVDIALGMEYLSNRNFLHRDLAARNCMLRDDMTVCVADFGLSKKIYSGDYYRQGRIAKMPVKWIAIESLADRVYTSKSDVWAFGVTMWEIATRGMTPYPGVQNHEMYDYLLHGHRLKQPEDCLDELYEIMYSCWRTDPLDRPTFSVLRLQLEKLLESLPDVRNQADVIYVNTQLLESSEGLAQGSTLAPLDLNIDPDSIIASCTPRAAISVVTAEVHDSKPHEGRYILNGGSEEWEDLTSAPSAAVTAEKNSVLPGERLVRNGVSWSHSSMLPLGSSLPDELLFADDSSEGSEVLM
Property: IC50 (µM)

{"Smiles Data": "Cc1nc(-c2c(C)nn(C)c2C)ccc1-c1nnc(N(C)Cc2ccc3nccn3c2)o1", "Target Of Assay": "UniProt Q12866", "Unit Abbrev": "µM", "Assay Value": 1.58}
{"Smiles Data": "CN1CCN(Cc2ccc(-c3ccc(CO[C@H]4CCC[C@@H]4NC(=O)c4cc(-c5cnn(C)c5)cnc4N)cc3)cc2)CC1", "Target Of Assay": "UniProt Q12866", "Unit Abbrev": "µM", "Assay Value": 0.0079}
{"Smiles Data": "COc1cc(-c2c(C)nn(C)c2C)ccc1-c1nnc(N(C)Cc2ccc3nccn3c2)o1", "Target Of Assay": "UniProt Q12866", "Unit Abbrev": "µM", "Assay Value": 0.501}
{"Smiles Data": "Cc1cc(-c2c(C)n[nH]c2C)ccc1-c1nnc(N(C)Cc2ccc3nccn3c2)o1", "Target Of Assay": "UniProt Q12866", "Unit Abbrev": "µM", "Assay Value": 2.51}
